Attribution: PubChem BioAssay

Assign z-score to each entry below.
# PROTOCOL DESCRIPTION: compound effects on lung adenocarcinoma cell viability – A549, calcein-AM fluorescence, 48 h, basal, profiling panel (AID 1162); also: test concentration not given here
# RECORDED CONDITIONS: higher = more signal
Give bare numbers.

Below, each entry is followed by its recorded z-score result.
- COMPOUND: "COCCCNC(=O)[C@@H]1c2ccccc2C(=O)N(C(C)C)[C@H]1c1ccc(CO)cc1"
  z-score: 0.0112
- COMPOUND: "CCCC[C@@H]1C[C@H]1[C@@H](NC(=O)c1cccs1)c1ccccc1C(F)(F)F"
  z-score: 0.11
- COMPOUND: "C=CCC(OC(C)=O)[C@@H]1[C@@H](N(Cc2cccc3ccccc23)C(=O)Cc2ccc(OC)cc2)c2cc(OCCCO)ccc2N1C(=O)c1ccc(-c2ccccc2)cc1 (some centres undefined)"
  z-score: -0.433

Attention now turns to another entry.
Problem: Could you share which z-score value was measured for O=C1C2C=CC(C(O)C3CC=CCC3)N(Nc3ccccc3)C2C(=O)N1c1ccccc1 (centres undefined) ?
Result: -1.05

* * *

Please respond with reported composite z-score for every item in the list.
# MEASURED TARGET: Follistatin-related protein 3 (Homo sapiens) (UniProt O95633)
# Sequence (O95633 whole entry, looked up): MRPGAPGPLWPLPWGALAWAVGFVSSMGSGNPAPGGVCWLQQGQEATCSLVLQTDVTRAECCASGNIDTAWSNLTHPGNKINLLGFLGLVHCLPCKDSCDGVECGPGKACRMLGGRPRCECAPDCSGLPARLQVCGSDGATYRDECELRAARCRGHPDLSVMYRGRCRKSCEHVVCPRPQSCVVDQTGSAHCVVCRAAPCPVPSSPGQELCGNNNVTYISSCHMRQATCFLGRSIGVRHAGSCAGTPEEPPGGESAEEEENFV
# PROTOCOL DESCRIPTION: compounds binding follistatin-related protein 3 – biochemical, small-molecule microarray, 635 nm fluorescence, primary screen (AID 1105);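 also: score merges emission near 667 nm and signal to noise per printed spot across three slides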
# RECORDED CONDITIONS: FSTL3 binding, higher = more signal
Answers are plain numbers.

These solved cases illustrate the format of a correct answer.
- COMPOUND: "C=C[C@H](C)[C@H](OC(=O)Nc1ccc(SC)cc1)c1ccc(OCCO)cc1"
  composite z-score: 0.42
- COMPOUND: "COC(=O)[C@@H]1N=C(c2ccc(OCCCO)cc2)O[C@@H]1C"
  composite z-score: -0.0372
- COMPOUND: "COc1cc(NN2C(C(O)c3ccc(N(C)C)cc3)C=CC3C(=O)N(c4ccccc4)C(=O)C32)cc(OC)c1OC (stereo unspecified)"
  composite z-score: 0.455

Please go through the list and note composite z-score for each compound.
1. CCOC(=O)C[C@H]1[C@H](OC(=O)c2ccc(C(=O)c3ccccc3)cc2)[C@@H](NC(=O)c2ccc(-c3ccccc3)cc2)c2cc(OCCCO)ccc2N1C(=O)Cc1ccc(OC)cc1
2. CCCCCCc1nc(Cc2cc(OC)c(OC)c(OC)c2)cc2c1[Si](C(C)C)(C(C)C)OC2
3. CC(C)NC(=O)[C@@]1(c2ccc([N+](=O)[O-])cc2)CC(=O)N(C2CCCCC2)[C@@H]1c1ccc(CO)cc1
4. CC(C)NC(=O)[C@@]1(C)c2ccccc2C(=O)N(Cc2ccc(OC(F)(F)F)cc2)[C@H]1c1ccc(CO)cc1
5. O=C(O)[C@@H]1[C@@H]2C(=O)N(c3ccccc3)C(=O)[C@@H]2C[C@@H]1Sc1ccccc1

Result:
[0.0472, 0.494, 1.04, -1.19, -0.852]

// each compound listed below needs its composite z-score
1. C=CCC(OC(C)=O)[C@@H]1[C@@H](N(Cc2cc3ccccc3o2)C(=O)Cc2ccc(F)cc2)c2cc(OCCCO)ccc2N1C(=O)Cc1ccc2ccccc2c1 (stereo partly specified)
2. CN(C)C(=O)[C@@]1(Cc2ccccc2CN=[N+]=[N-])N=C(c2ccc(OCCCO)cc2)O[C@H]1c1ccccc1N=[N+]=[N-]
3. C=C(COC)C(=O)CC[C@@H](OC(C)=O)c1cccc(OCCO)c1
4. C=CC[C@]1(C(=O)N2CCOCC2)COC(c2ccc(OCCCO)cc2)=N1

Result:
[-0.656, 0.724, -0.303, 0.264]

Can you give me composite z-score for all of these, one by one?
1. C=CCC(OC(C)=O)[C@@H]1[C@@H](N(Cc2ccc(-c3ccccc3)cc2)C(=O)c2ccc(-c3ccccc3)cc2)c2cc(OCCCO)ccc2N1C(=O)c1ccc2ccccc2c1 (stereo partly specified)
2. NCCCCCCNC(=O)[C@@H]1C[C@@H]2C(=O)N[C@@H](CCCCN)C(=O)N2[C@@H]1c1ccc(O)cc1
3. CC[C@@H]1O[Si](C(C)C)(C(C)C)c2c1cc(-c1cc(C)c(OC)c(C)c1)nc2-c1ccc(Oc2ccccc2)cc1

Result:
[0.453, 0.27, -0.452]

Dear colleague, could you please provide composite z-score for the compounds listed below?
1. C=CCNC(=O)[C@@H]1[C@H]2C(=O)O[C@H](c3ccccc3)[C@H](c3ccccc3)N2[C@H](c2ccccc2OCCO)[C@@]12C(=O)Nc1ccc(C#CCC(C(=O)OC)C(=O)OC)cc12
2. CCOC(=O)C=Cc1cccc(C)c1O
3. C=CC[C@H](OC(=O)Nc1ccc(SC)cc1)c1ccc(O)c2ccccc12
4. CCCCN1CC=CC23O[C@@H]4/C=C\CCCOC(=O)C4[C@H]2C(=O)N(CCO)[C@@H]3C1=O (stereo partly specified)
5. C=C[C@H]1C(C(=O)OCC)=CC[C@@H](c2ccccc2)N1S(=O)(=O)c1ccc(C)cc1
6. COC(=O)c1c(CC[C@@H](CO)NC(=O)N[C@@H](C)Cn2cc(-c3ccccn3)nn2)oc(C(C)=O)c1C(=O)OC

Result:
0.276
-0.101
1.08
-1.38
1.11
0.454
